- Read-out: Vascular endothelial growth factor receptor 2 (Homo sapiens)
- assayExplanation: BSK_4H_VEGFRII: BioMAP Diversity Plus: 4H Assay for Vascular endothelial growth factor receptor 2 (VEGFR2) Biomarker Activity (AID 2283031);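 as to AC50: cell-surface VEGFR2 protein level quantified by ELISA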
- conditionDescription: primary human endothelial cells (HUVEC); actives raise or lower the signal
Calls of active or inactive are those of the source. The calls were made as follows: active = hit-call score of the fitted dose curve at least 0.9, where 1 is the maximum; inactive = score below 0.9.
resultType: AC50

                                    compound        testresult
 0                  Cc1cc(N=Nc2ccccc2C)ccc1N          inactive
 1          COP(=S)(OC)SCN1C(=O)c2ccccc2C1=O          inactive
 2               CNC(=O)Oc1cccc2c1OC(C)(C)C2          inactive
 3                                 [As]#[In]          inactive
 4                    Nc1ccc(N=Nc2ccccc2)cc1          inactive
 5        Clc1ccc(C(c2ccc(Cl)cc2)C(Cl)Cl)cc1  26.1 µM (active)
 6  Cn1cc(-c2ccccc2)c(=O)c(-c2cccc(C(F)(F)F)c2)c1          inactive
 7                       C1=Cc2cccc3cccc1c23          inactive
 8                                     OCCCl          inactive
 9  CS(=O)(=O)NC(=O)c1cc(Oc2ccc(C(F)(F)F)cc2Cl)ccc1[N+](=O)[O-]          inactive
10       c1ccc(C2CO2)cc1 (centres undefined)          inactive
11                                N#CC(Br)Br          inactive
12                     Cc1ccc(N=C=O)cc1N=C=O          inactive
13  CC(C)(C)C(O)(CCc1ccc(Cl)cc1)Cn1cncn1 (centres undefined)          inactive

---

- Read-out: Alkaline Phosphatase, Placental (ALPP) gene, ALPP (gene 250)
- assayExplanation: LTEA_HepaRG_ALPP: Life Technologies and Expression Analysis (LTEA) Assay for Alkaline Phosphatase, Placental (ALPP) gene using HepaRG (AID 2283468)
- conditionDescription: mRNA level, 48 h; actives raise or lower the signal
Active and inactive are the calls of the source. How the source made its calls: active means hit-call score of the fitted dose curve at least 0.9, where 1 is the maximum; inactive means score below 0.9.
Classes used: yes (1) (active), no (0) (inactive)

                                    molecule      cat
 0                                 [As]#[In]   no (0)
 1                  COC(=O)Nc1nc2ccccc2[nH]1   no (0)
 2      CC(C)(C)OOC(C)(C)CCC(C)(C)OOC(C)(C)C   no (0)
 3                             CN(C)c1ccccc1   no (0)
 4  ClC1=C(Cl)C2(Cl)C3C(Cl)C=CC3C1(Cl)C2(Cl)Cl (stereo not drawn)   no (0)
 5                        CCCSC(=O)N(CCC)CCC   no (0)
 6                   CC(C)(C)OOC(=O)c1ccccc1   no (0)
 7               CC(O)CCO (stereo not drawn)   no (0)
 8                       C1=Cc2cccc3cccc1c23   no (0)
 9                              Cc1ccc(N)cc1   no (0)
10                   CN(C)C(=O)Nc1ccc(Cl)cc1   no (0)
11  O=C(O)C1C2CCC(O2)C1C(=O)O (stereo not drawn)  yes (1)
12                   O=C(Nc1ccccc1)c1ccccc1I   no (0)
13                                O=Cc1ccco1   no (0)
14  CCNS(=O)(=O)C(F)(F)C(F)(F)C(F)(F)C(F)(F)C(F)(F)C(F)(F)C(F)(F)C(F)(F)F   no (0)
15  O=C(N[C@H](c1ccccc1)[C@@H]1CN2CCC1CC2)c1c(Cl)ccc(C(F)(F)F)c1Cl  yes (1)
16          COP(=S)(OC)SCN1C(=O)c2ccccc2C1=O   no (0)
17  CCCCCCCCOC(=O)c1ccc(C(=O)OCCCCCCCC)c(C(=O)OCCCCCCCC)c1   no (0)
